- Tested on: Clone20 osteoblast Shn3 3'UTR firefly luciferase, 24 h
- experiment_description: Shn3 3'UTR reporter inhibitors, dose response, cell-based, Clone20 osteoblasts, luminescence, dry powder, set 2 (AID 743417)
Inconclusive results are not listed.
readout: AC50

Query string: Query (compound): Oc1c(C(c2ccccc2Cl)N2CCCC2)ccc2cccnc12 (stereo unspecified) ; field requested: AC50
Result string: 5.77 µM

* * *

- Test system: Clone20 osteoblast Shn3 3'UTR firefly luciferase, 24 h
- experiment_description: Shn3 3'UTR reporter inhibitors, dose response, cell-based, Clone20 osteoblasts, luminescence, dry powder, set 2 (AID 743417)
Inconclusive results are not listed.
readout: AC50

COCCn1c(C)cc(C2=NNC(=NC3CC3)SC2)c1C | < 0.26 µM
Cc1ccc(Cl)cc1N1CCN(C(=O)C2CCC(=O)N(C3CCCCCC3)C2)CC1 (centres undefined) | 3.14 µM

Query string: Lab note: need AC50 with Clone20 osteoblast Shn3 3'UTR firefly luciferase, 24 h for entry `Cc1ccccc1C(=O)NC(=S)Nc1ccc(N2CCN(C(=O)c3ccccc3)CC2)cc1` , please look it up.
Result string: 1.88 µM

Query string: Lab note: need AC50 with Clone20 osteoblast Shn3 3'UTR firefly luciferase, 24 h for entry `Cc1ccc(NS(=O)(=O)c2ccc(C(=O)NC3CCN(Cc4ccccc4)CC3)cc2)cc1` , please look it up.
Result string: 4.69 µM

Query string: Lab note: need AC50 with Clone20 osteoblast Shn3 3'UTR firefly luciferase, 24 h for entry O=C1CC(Sc2nnc(-c3ccccc3O)o2)C(=O)N1c1ccccc1 (centres undefined) , please look it up.
Result string: 12.9 µM

Query string: Lab note: need AC50 with Clone20 osteoblast Shn3 3'UTR firefly luciferase, 24 h for entry COc1ccc(CNCCC(c2ccc(OC(C)C)cc2)c2ccccc2OC)cc1 (centres undefined) , please look it up.
Result string: 3.86 µM

Query string: Lab note: need AC50 with Clone20 osteoblast Shn3 3'UTR firefly luciferase, 24 h for entry `CC(=O)c1ccc(N2CCN(c3ccc(S(=O)(=O)NCCCN(C)C)cc3[N+](=O)[O-])CC2)cc1` , please look it up.
Result string: 3.78 µM

Query string: Lab note: need AC50 with Clone20 osteoblast Shn3 3'UTR firefly luciferase, 24 h for entry CCc1nc(N2CCN(C(C)=O)CC2)c2c3c(sc2n1)CC(C(C)(C)C)CC3 (centres undefined) , please look it up.
Result string: 6.76 µM

Query string: Lab note: need AC50 with Clone20 osteoblast Shn3 3'UTR firefly luciferase, 24 h for entry `C=C1C(=O)O[C@H]2[C@H]1[C@H](OC(=O)CC(=O)O[C@@H]1C[C@@H](C)[C@@H]3C=CC(=O)[C@@]3(C)[C@H]3OC(=O)C(=C)[C@H]13)C[C@@H](C)[C@H]1C=CC(=O)[C@]12C` , please look it up.
Result string: 1.54 µM
